List of Activity values.
Tested on: Jurkat
assay-method-text: Immunosuppression-mediated antiproliferative activity against human Jurkat T cells assessed as inhibition of cell growth at 1 mg/ml incubated for 48 hrs by VPD450 staining based flow cytometry relative to control
Format: functional
Parameters: scale not given: the % may be the effect or the level left
Where a SMILES comes first, the peptide text is derived from it. [ ]: non-standard residue; d: D form. The star is where a group is joined. Mycophenolyl = COc1c(C)c2c(c(O)c1C/C=C(\C)CCC(=O)*)C(=O)OC2; Arg(NO2) = N=C(NCCC[C@H](N)C(=O)O)N[N+](=O)[O-]; βAla = NCCC(=O)O

compound	Activity [%]
COC(=O)[C@H](CCCNC(=N)N[N+](=O)[O-])NC(=O)[C@@H]1CCCN1C(=O)[C@H](CCCCNC(=O)[C@H](C)N)NC(=O)[C@@H](NC(=O)CC/C(C)=C/Cc1c(O)c2c(c(C)c1OC)COC2=O)[C@@H](C)O (Mycophenolyl-TK(Ala)P[Arg(NO2)]-OMe)	55.31
COC(=O)[C@@H](NC(=O)[C@H](CCCCNC(=O)CCN)NC(=O)[C@@H]1CCCN1C(=O)[C@H](CCCNC(=N)N[N+](=O)[O-])NC(=O)CC/C(C)=C/Cc1c(O)c2c(c(C)c1OC)COC2=O)[C@@H](C)O (Mycophenolyl-[Arg(NO2)]PK(βAla)T-OMe)	75.89
COC(=O)[C@H](CCCNC(=N)N[N+](=O)[O-])NC(=O)[C@@H]1CCCN1C(=O)[C@H](CCCCNC(=O)[C@@H](N)C(C)C)NC(=O)[C@@H](NC(=O)CC/C(C)=C/Cc1c(O)c2c(c(C)c1OC)COC2=O)[C@@H](C)O (Mycophenolyl-TK(Val)P[Arg(NO2)]-OMe)	55.1
CC[C@H](C)[C@H](N)C(=O)NCCCC[C@H](NC(=O)[C@@H]1CCCN1C(=O)[C@H](CCCNC(=N)N[N+](=O)[O-])NC(=O)CC/C(C)=C/Cc1c(O)c2c(c(C)c1OC)COC2=O)C(=O)N[C@H](C(=O)OC)[C@@H](C)O (Mycophenolyl-[Arg(NO2)]PK(Ile)T-OMe)	52.77
COC(=O)[C@@H](NC(=O)[C@H](CCCCNC(=O)[C@@H](N)CC(C)C)NC(=O)[C@@H]1CCCN1C(=O)[C@H](CCCNC(=N)N[N+](=O)[O-])NC(=O)CC/C(C)=C/Cc1c(O)c2c(c(C)c1OC)COC2=O)[C@@H](C)O (Mycophenolyl-[Arg(NO2)]PK(Leu)T-OMe)	63.04
COC(=O)[C@@H](NC(=O)[C@H](CCCCNC(=O)CN)NC(=O)[C@@H]1CCCN1C(=O)[C@H](CCCNC(=N)N[N+](=O)[O-])NC(=O)CC/C(C)=C/Cc1c(O)c2c(c(C)c1OC)COC2=O)[C@@H](C)O (Mycophenolyl-[Arg(NO2)]PK(Gly)T-OMe)	56.72
COC(=O)[C@H](CCCNC(=N)N[N+](=O)[O-])NC(=O)[C@@H]1CCCN1C(=O)[C@H](CCCCN)NC(=O)[C@@H](NC(=O)CC/C(C)=C/Cc1c(O)c2c(c(C)c1OC)COC2=O)[C@@H](C)O (Mycophenolyl-TKP[Arg(NO2)]-OMe)	60.78

Cited source: ChEMBL document CHEMBL4680189
